Just for reference, ChEMBL document CHEMBL3639235 is where these values come from.

# Study Target: Histone deacetylase 1 (Homo sapiens)
# Sequence (Q13547 whole entry): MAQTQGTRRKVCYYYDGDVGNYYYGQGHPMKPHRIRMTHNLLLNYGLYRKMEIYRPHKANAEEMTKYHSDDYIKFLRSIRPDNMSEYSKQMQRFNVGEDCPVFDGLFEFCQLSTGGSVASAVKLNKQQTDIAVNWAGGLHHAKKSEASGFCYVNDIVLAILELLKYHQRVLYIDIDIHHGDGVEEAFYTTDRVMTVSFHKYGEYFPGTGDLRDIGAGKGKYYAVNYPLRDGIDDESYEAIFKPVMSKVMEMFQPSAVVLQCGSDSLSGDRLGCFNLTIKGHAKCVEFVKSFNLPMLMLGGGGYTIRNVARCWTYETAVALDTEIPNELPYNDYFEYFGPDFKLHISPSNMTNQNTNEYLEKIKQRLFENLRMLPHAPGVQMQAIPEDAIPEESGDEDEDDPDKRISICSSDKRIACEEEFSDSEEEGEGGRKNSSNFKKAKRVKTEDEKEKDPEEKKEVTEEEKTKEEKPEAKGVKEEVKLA
Property Label: IC50 (nM)

>>> df
                                  structure  property_label  value_units  measurement
0  CC(=O)SCC/C=C/[C@@H]1CC(=O)N[C@H](C(C)C)C(=O)N[C@H](C)C(=O)N[C@H](C(C)C)[C@@H](O)CC(=O)O1            IC50           nM         21.6
